Numbers sourced from PubChem BioAssay (NCATS).

assay: SW1088 Cancer Cell Toxicity qHTS against the NCATS CANVASS Library (AID 1347350); settings: SW1088 viability, CellTiter-Glo luminescence, 72 h; series mostly up to 38.3 µM; note: nearly all actives have a fitted effect of over 75% in size
Results filed as inconclusive are left out. Calls of active or inactive are those of the source. Calls come from the whole dose curve; as a rule, active = well fitted cell-killing curve with a large enough effect; inconclusive = small, poorly fitted or top-dose-only effect; inactive = flat fitted curve, though single readings scatter. Numbered stars: 1 amine (or outer) side, 2 acyl side, 3 side chain; on linkers, the order of the positions; unused ones are H or OH. Square brackets hold non-standard residues; d marks the D form. Peptide text beside a SMILES is read from it. ξ: configuration not given here. X4 = O=C(C1CC2(c3ccc(O)cc3)c3ccccc3NC2N1[*:1])[*:2]; ξW = NC(Cc1c[nH]c2ccccc12)C(=O)O; ξY = NC(Cc1ccc(O)cc1)C(=O)O
I would appreciate it if you answered using one of these outcomes: active, inactive

Q: Hi, sorry to bother you, what did the test record for COc1ccc([C@@H]2c3cc(OC)c(OC)cc3C(=O)C(C)C2C)cc1OC (stereo partly drawn) ?
Ans: inactive

Q: Any idea what this test logged for CC12C[C@]3(O)O[C@@H](O1)[C@]1(COC(=O)c4ccccc4)[C@@H]3CC21OC1OC(CO)C(O)C(O)C1O (stereo partly drawn) ?
Ans: inactive

Q: What classification did C/C=C/C=C/C1(O)C2C=C3C(=O)CC45C(=O)C(O)=C(C)C(=O)C4C1C1(C(=O)C(O)=C(C)C(=O)C351)C2C (stereo not drawn) end up with in this test?
Ans: inactive

Q: What was the test verdict on C[C@@]12CCC[C@@](C)(C(=O)O)[C@H]1C[C@@H](O)[C@]13C[C@H]4C[C@H](O[C@@]4(C)C1)[C@@H]23 ?
Ans: inactive

Q: Test call, this molecule: C[C@@H]1O[C@@H](O[C@@H]2[C@@H](O)[C@H](O[C@@H]3[C@@H](O)[C@@H](O)C(O[C@H]4[C@H](OC(=O)[C@]56CCC(C)(C)C[C@H]5C5=CCC7[C@@]8(C)C[C@H](O)[C@H](O[C@@H]9C[C@H](CO)[C@@H](O)[C@H](O)[C@H]9O)[C@@](C)(CO)C8[C@H](O)C[C@@]7(C)[C@]5(C)CC6)OC[C@H](O)[C@@H]4O)O[C@H]3C)OC[C@H]2O)[C@H](O)[C@H](O)[C@H]1O (stereo partly drawn)
Ans: inactive

Q: Dear colleague, could you share the recorded outcome for COc1ccc2cc(NC(=O)C3=NO[C@H]4[C@H](O)C=C[C@@H](Cl)[C@@]4(O)C3)c(=O)oc2c1OC when you have a moment?
Ans: inactive

Q: Any idea what this test logged for C/C=C/C(=O)[C@@H](C)C1=CC(=O)C2=C(O[C@@]34CC[C@H](O)C(C)(C)[C@@H]3CC[C@H](C)[C@@]4(C)C2)C1=O ?
Ans: active

Q: Which outcome did this test record for the molecule CC[C@@H]1C[C@@]2(CC)OC(=O)[C@@]3(CC)OC(=O)[C@@H]1[C@@H]23 ?
Ans: inactive

Q: For OCc1ccc2ocnc2c1 , which call appears in the assay record?
Ans: inactive

Q: Hey, what did the test say about C/C1=C/[C@@H](C)[C@H](O)C/C=C/CC/C=C/C(=O)O[C@@H]1[C@H](C)C(=O)/C=C/CC1CC(=O)NC(=O)C1 ?
Ans: active

Q: What is the recorded call for this molecule in the test? C=C1C(=O)O[C@H]2C[C@H](C)[C@@H]3CC(=O)C(C)=C3[C@H](O)[C@H]12
Ans: inactive

Q: Which result was noted for this molecule in the test: CN1CC[C@]2(c3cccc4c3N[C@@H]3N(C)CC[C@]43[C@@]34CCN(C)[C@@H]3Nc3c([C@]56CCN(C)[C@H]5Nc5ccccc56)cccc34)c3ccccc3N[C@H]12
Ans: active

Q: Please share the test call associated with CC[C@H](C)[C@H](NC(=O)C(Cc1ccc(O)cc1)NC(=O)C(Cc1c[nH]c2ccccc12)NC(=O)[C@H](C)N)C(=O)N1C(C(=O)NC(Cc2ccc(O)cc2)C(=O)O)CC2(c3ccc(O)cc3)c3ccccc3NC12 (stereo partly drawn) (H-A[ξW][ξY]I[X4][ξY]-OH) .
Ans: inactive

----------
target: Nicotinamide N-methyltransferase (Homo sapiens); test: Confirmatory Screen for Target Class Profiling of Small Molecule Inhibitors of Methyltransferases (AID 1745852); settings: MTase-Glo luminescence, SAH detection, recombinant enzyme; measured here: NNMT max response; stronger effect = lower value
property: activity

Reported activity for COc1ccc2c(c1)C[C@H](C(=O)Nc1ccc(-c3cn[nH]c3)cc1OCCN(C)C)CO2 was -0.41%

Kindly note the recorded activity for c1nc(NCC2CCOC2)c2cc(-c3ccc4c(c3)OCO4)ccc2n1 (stereo not given) , which is -29.1%

So for Cn1cc(-c2cnc3ccc4ccc(CS(=O)(=O)NCc5ccccn5)cc4c(=O)c3c2)cn1 , the logged activity turned out to be -3.63%

activity recorded for this compound, Cc1cc(C)c(NC(=O)N(Cc2ccc3c(c2)Cc2ccccc2-3)C2CCCCCC2)c(C)c1 , is -15.8%

So, CCN1CCC[C@@H]1CNC(=O)c1ccc2c(c1)NC(=O)/C(=C/c1ccccc1F)S2 ? Its activity was -32%

What the record says about COc1cc2nc(N3CCN(C)CC3)nc(NC3CCN(Cc4ccccc4)CC3)c2cc1OC : activity is -9.04%

activity for CC(C)n1nc(Cc2cccc3ccccc23)c2c(N)ncnc21 is -28.9%

The recorded activity for COc1ccc(-c2nc(-c3cc(C(F)(F)F)cc(C(F)(F)F)c3)n(Cc3ccc(C(N)=O)cc3)c2-c2ccc(OC)cc2)cc1 is -7.68%

Value of activity reported for the compound Nc1ncnc2c1c(I)cn2C1OC(CO)C(O)C1O (stereo not given) is -88.4%

Looking up CN1C2CCCC1CC(NC(=O)c1nn(C)c3ccccc13)C2 (stereo not given) , I see its activity listed as 0.961%

What the record says about O=C1c2ccccc2-c2nc3nnnn3nc21 (tested in a mixture with another compound) : activity is -67.5%

Data point: O=C1NC(=O)C(c2c[nH]c3ccccc23)=C1c1c[nH]c2ccccc12 ; activity = -39.6%

The measured activity associated with C=CC(=O)Nc1cccc(Nc2nc(Nc3ccc(Oc4ccnc(C(=O)NC)c4)cc3)ncc2F)c1 reads -53.4%

The compound identified as O=[N+]([O-])c1ccc(-[n+]2nc(-c3ccccc3)nn2-c2ccc(I)cc2)cc1 registered its activity at -39.3%

Input CN(C)c1ccc(Nc2c3ccc(NC(=O)CCN4CCCC4)cc3nc3cc(NC(=O)CCN4CCCC4)ccc23)cc1 . Output activity: -39.2%

Value of measured activity for the entry O=C1NC(=O)/C(=C\c2ccc3c(c2)OC(F)(F)O3)S1 : -7.77%

Short answer for Cc1nc(CN(C)c2ncnc3ccc(-c4ccc5c(c4)OCO5)cc23)cs1 : activity was -80.4%

Short answer for CNc1cc2c(Nc3cccc(Br)c3)ncnc2cn1 : activity was -23.8%

The compound listed as C=CC(=O)N1CCN(C(=O)c2cc(-c3cc(Cl)ccc3Cl)c(Cl)cc2OC)CC1 has a reported activity of -31.6%

The recorded activity for CC(C)n1cc(-c2ccc(Oc3ccccc3)cc2)c2c(N)ncnc21 is -34.7%

----------
experiment: SW1088 Cancer Cell Toxicity qHTS against the NCATS CANVASS Library (AID 1347350); settings: SW1088 viability, CellTiter-Glo luminescence, 72 h; series mostly up to 38.3 µM; note: nearly all actives have a fitted effect of over 75% in size
Records with an inconclusive call do not appear. The source made the active and inactive calls. Calls come from the whole dose curve; as a rule, active = well fitted cell-killing curve with a large enough effect; inconclusive = small, poorly fitted or top-dose-only effect; inactive = flat fitted curve, though single readings scatter. Numbered stars: 1 amine (or outer) side, 2 acyl side, 3 side chain; on linkers, the order of the positions; unused ones are H or OH. Bridge positions count the residues as written; N and C are the ends. Square brackets hold non-standard residues; d marks the D form. Peptide text beside a SMILES is read from it. ξ: configuration not given here. Phe(3R-OH) = O=C([C@@H](N[*:1])[C@H](O[*:3])c1ccccc1)[*:2]; NMeTrp(4-OMe) = CN[C@@H](Cc1c[nH]c2cccc(OC)c12)C(=O)O; ξThr(3R)(O-yl) = C[C@@H](O[*:3])C(N[*:1])C(=O)[*:2]; NMeThr(3ξ) = CN[C@H](C(=O)O)C(C)O; NMeL = CN[C@@H](CC(C)C)C(=O)O; NMeV = CN[C@H](C(=O)O)C(C)C; ξIle = CC[C@H](C)C(N)C(=O)O; ξV = CC(C)C(N)C(=O)O
Respond with a class label; see active, inactive

Q: # fetch the recorded call for C/C=C/c1cc(OC)c2c(c1)[C@@H](C)[C@H](c1ccc(O)c(OC)c1)O2 here
Ans: inactive

Q: Query: recorded result category for C=C1C[C@@]23C=CC(=O)[C@@](C)(CCC(=O)Nc4c(O)ccc(C(=O)O)c4O)C2C[C@@H]1CC3 (some centres undefined) in this test
Ans: inactive

Q: Recorded test outcome, item CC(=O)[C@@H]1[C@@H](O)C[C@H]2[C@]3(C)CC[C@H]4C(C)(C)CCC[C@]4(CO)[C@H]3C[C@H]3OC(=O)[C@@H]1[C@@]32C
Ans: inactive

Q: Hi, sorry to bother you, what did the test record for COc1c(O)cc2oc(-c3ccccc3)cc(=O)c2c1O ?
Ans: inactive

Q: Called result for C[C@]12CC[C@]3(C1)[C@H](CC2=O)CC(OC(=O)c1ccccc1)[C@H]1[C@@](CO)(C(=O)O)CCC[C@@]13C (some centres undefined)
Ans: inactive

Q: Test call for this compound, please: C[C@H]1C[C@@H]([C@@H]2CC[C@]34O[C@H](CC[C@@]35C[C@H](C)C(=O)O5)CN24)OC1=O
Ans: inactive

Q: Which outcome was assigned to C=CC(=C)CC[C@]1(C)[C@H]2C[C@H](OC(=O)C(C)CC)C=C3[C@H](OC(C)=O)O[C@H](OC(C)=O)[C@@]32[C@H](OC)C[C@@H]1C (some centres undefined) in this test?
Ans: active

Q: What was the test verdict on CC(C)=CCC/C(C)=C/Cc1c(O)c(CC=C(C)C)c(O)c2c(=O)c3cc(O)ccc3oc12 ?
Ans: active

Q: Query: recorded result category for CC[C@H](C)C(NC(=O)[C@@H](NC)C(C)C)C(=O)NC1C(=O)N(C)[C@@H](C(C)O)C(=O)N[C@@H](C(C)C)C(=O)N(C)[C@@H](CC(C)C)C(=O)NC(C(C)C)C(=O)N(C)[C@@H](C(C)C)C(=O)N(C)[C@@H](Cc2c[nH]c3cccc(OC)c23)C(=O)N[C@@H](C(C)C)C(=O)N[C@@H]([C@H](O)c2ccccc2)C(=O)N[C@@H](C(C)C)C(=O)O[C@@H]1C (stereo partly drawn) (H-[NMeV][ξIle][ξThr(3R)(O-yl)][NMeThr(3ξ)]V[NMeL][ξV][NMeV][NMeTrp(4-OMe)]V[Phe(3R-OH)]V; ester 3-C) in this test
Ans: inactive

Q: // param item: C=C(C)[C@@H]1CC[C@]2(C)CC[C@]3(C)[C@H](CC[C@@H]4[C@@]5(C)CC[C@H](O)C(C)(C)[C@@H]5CC[C@]43C)[C@@H]12 ; yields the recorded call
Ans: inactive

Q: How did this test come out for CN1CCc2cc3c(c4c2[C@H]1[C@@H](O)c1ccccc1-4)OCO3 ?
Ans: inactive

Q: Status in this test for O=C(O)CC1OCc2c(O)cccc21 (centres undefined) ?
Ans: inactive

Q: Called result for COc1cc(O)c2c3c(c(O)cc(C)c13)C(=O)OC2
Ans: inactive

Q: Hi team, can someone confirm the assay call for CN1C(=O)C2C(N=CN2C)N(C)C1=O (centres undefined) ?
Ans: inactive
